System: MDA-MB-231
Experiment: NCI tumour cell line growth inhibition, 48 h
The source made the active and inactive calls. Cut-off read from the data, not from the text of the source: active = GI50 up to about 1.1 µM and inactive = higher.
measure name: GI50

{"columns": ["compound", "value"],
 "data": [
  ["COc1ccc2c(O)c3[n+](cc2c1OC)CCc1cc2c(cc1-3)OCO2", "> 100 µM (inactive)"],
  ["O=C(N/N=C\\c1cccc2c([N+](=O)[O-])cccc12)Nc1ccccc1", "17.8 µM (inactive)"],
  ["NC(=O)N/N=C1\\CCCCc2ccccc21", "> 10 µM (inactive)"],
  ["CC(C)(C)OC(=O)N/N=C(/N)Cc1ccc(Cl)cc1", "> 100 µM (inactive)"],
  ["Cc1cc(-c2nc3c(F)cccc3s2)ccc1N", "> 100 µM (inactive)"],
  ["N/C1=C/C(=O)NC(=O)c2c(c3ccccc3oc2=O)C1", "> 100 µM (inactive)"],
  ["O=C(OCCN=C1c2ccccc2CCc2ccccc21)c1cc([N+](=O)[O-])cc([N+](=O)[O-])c1", "> 31.6 µM (inactive)"],
  ["CC1(C)C(=S)C(C)(C)C1=S", "> 100 µM (inactive)"],
  ["CCC1c2[nH]c3ccccc3c2C[C@H]2C(=O)NC(Cc3ccccc3)C(=O)N12 (some centres not stated)", "21 µM (inactive)"],
  ["CC(C)(C)[Si](C)(C)OCC1OC(n2cc(I)c(=O)[nH]c2=O)C(O[Si](C)(C)C(C)(C)C)C1O[Si](C)(C)C(C)(C)C (configuration not stated)", "15.3 µM (inactive)"],
  ["O=C1/C(=C/c2cccc([N+](=O)[O-])c2)N=C(c2ccccc2)N1c1nc2c(Cl)cc(Cl)cc2s1", "29.4 µM (inactive)"],
  ["CSc1ccc2c(c1)N(CCCN(C)C)c1ccccc1S2", "12.7 µM (inactive)"]
]}

###

Test system: SF-268
Assay: NCI tumour cell line growth inhibition, 48 h
The source made the active and inactive calls. Cut-off read from the data, not from the text of the source: active = GI50 up to about 1.1 µM and inactive = higher.

{"columns": ["molecule", "study system", "GI50"],
 "data": [
  ["COc1c(N2CCCCC2)c2c(=O)c3ccccc3oc2c2c3ccccc3n(C)c12", "SF-268", "> 100 µM (inactive)"],
  ["COc1cccc(C2N3CCCCC3[C@@H]3c4[nH]c5ccccc5c4CCN23)c1OC (stereo not given in full)", "SF-268", "11.5 µM (inactive)"],
  ["O=C1c2ccccc2-c2nc(-c3cccs3)cc3c2c1nc1ccccc13", "SF-268", "12.5 µM (inactive)"],
  ["CC(C)CCCCCCCCCCCCC(=O)NCC(=O)NC1C(C)OC(Nc2[nH]cnc3ncnc2-3)C(O)C1O (stereo not given)", "SF-268", "0.000635 µM (active)"],
  ["O=C(Nc1ccc([N+](=O)[O-])cc1)C(=O)C(C(=O)c1ccccc1F)C1OC(=O)c2ccccc21 (stereo not given)", "SF-268", "35 µM (inactive)"],
  ["[O-][n+]1c(-c2ccccc2)c2nc3ccccc3nc2c2ccccc21", "SF-268", "> 100 µM (inactive)"],
  ["Cc1ccccc1-n1c(=O)sc2c(=O)n(-c3ccccc3)c(=S)[nH]c21", "SF-268", "> 100 µM (inactive)"],
  ["CCOC(=O)CCC(NC(=O)c1ccc(N2CCN(c3c(C)nc(N)nc3N)CC2)cc1)C(=O)OCC (stereo not given)", "SF-268", "0.757 µM (active)"],
  ["C=CCO/N=C/c1cc(/N=C(/S)c2ccoc2C)ccc1Cl", "SF-268", "14.8 µM (inactive)"],
  ["CS(=O)(=O)NNS(=O)(=O)c1ccccc1", "SF-268", "> 100 µM (inactive)"]
]}

###

System: UACC-257
Test: NCI tumour cell line growth inhibition, 48 h
The source made the active and inactive calls. No stated cut-off is given here; in the data, active = GI50 up to about 1.1 µM and inactive = higher.
measure name: GI50

{"columns": ["compound", "value"],
 "data": [
  ["C=CCO/N=C/c1cc(/N=C(/S)c2ccoc2C)ccc1Cl", "14.9 µM (inactive)"],
  ["CC#CC(OCC)(OCC)OCC", "> 100 µM (inactive)"],
  ["N#CC(Sc1ccccc1)C(N)=O (stereo unspecified)", "> 100 µM (inactive)"],
  ["O=C(N/N=C\\c1cccc2c([N+](=O)[O-])cccc12)Nc1ccccc1", "19.5 µM (inactive)"],
  ["OCc1ccccc1O[C@H]1O[C@H](CO)[C@@H](O)[C@H](O)[C@H]1O", "> 100 µM (inactive)"],
  ["CC[C@@]1(C)CCC2c3ccc(O)cc3CC[C@H]2C1C (stereo partly specified)", "15.7 µM (inactive)"],
  ["COc1cnnc2c(C)c(-c3ccccc3)nn12", "> 90.8 µM (inactive)"],
  ["O=c1c(-c2ccccc2)c(SCCN2CCOCC2)n(-c2ccccc2)c(=S)n1-c1ccccc1", "> 100 µM (inactive)"],
  ["COc1ccc2cc3n(c2c1)CCc1cc(OC)c(OC)cc1-3", "92.3 µM (inactive)"],
  ["CCOC(=O)C(C(=O)c1ccccc1C(=O)OC)=P(c1ccccc1)(c1ccccc1)c1ccccc1", "> 10 µM (inactive)"],
  ["CCOC(=O)/C(=C/c1ccc(C(=O)OC)cc1)N(CC)CC", "57.3 µM (inactive)"]
]}

###

Test system: SF-539
Assay: NCI tumour cell line growth inhibition, 48 h
Calls of active or inactive are those of the source. Cut-off read from the data, not from the text of the source: active = GI50 up to about 1.1 µM and inactive = higher.

{"columns": ["molecule", "study system", "GI50"],
 "data": [
  ["O[C@H]1[C@H]2[C@H](O)CCCN2C[C@H]1O", "SF-539", "> 100 µM (inactive)"],
  ["COC(=O)[C@@H](NC(=O)N(CCC#N)CCCN(C(=O)N[C@H](Cc1ccccc1)C(=O)OC)c1ccccc1)C(C)C", "SF-539", "> 100 µM (inactive)"],
  ["Cc1c2c(OCCN3CCCCC3)nn(C)c(=O)c2c(C)n1-c1ccccc1", "SF-539", "29.4 µM (inactive)"],
  ["CC(C)(C)OC(=O)NC(CS(=O)(=O)O)C(=O)O (centres undefined)", "SF-539", "> 100 µM (inactive)"],
  ["Nc1nc2sc3ccccc3c(=O)n2n1", "SF-539", "> 100 µM (inactive)"],
  ["Nc1nc(Cl)cc(NCC2(CO)CCC(Cc3ccccc3)C2)n1 (centres undefined)", "SF-539", "29 µM (inactive)"],
  ["COc1ccc(CN2CC(C)(C)C2=O)c(OC)c1", "SF-539", "> 100 µM (inactive)"],
  ["OC(c1cc2ccc(C(F)(F)F)cc2c2cc(C(F)(F)F)ccc12)C1CCCCN1 (centres undefined)", "SF-539", "1.69 µM (inactive)"],
  ["COc1ccccc1NC(=O)CC(=O)NNCC(=O)Nc1nc(-c2ccccc2)cs1", "SF-539", "> 100 µM (inactive)"],
  ["O=C(CC(=O)C1CCOC1=O)C(=O)Nc1ccc(Cl)cc1 (centres undefined)", "SF-539", "> 100 µM (inactive)"],
  ["N=C1N(S(=O)(=O)c2ccccc2)[C@@H](Cc2ccccc2)[C@H](c2ccccc2)C1(c1ccccc1)c1ccccc1", "SF-539", "> 100 µM (inactive)"],
  ["Cc1cc([N+](=O)[O-])ccc1NC(=O)C(=O)C(C(=O)c1ccccc1-c1ccccc1)C1OC(=O)c2ccccc21 (centres undefined)", "SF-539", "9.02 µM (inactive)"],
  ["Nc1ccc(C(=O)/C=C/c2ccccc2O)cc1", "SF-539", "> 100 µM (inactive)"],
  ["O=C(NC(=S)Nc1ccc(Br)cc1)c1ccc2c(c1)Sc1ccccc1O2", "SF-539", "> 100 µM (inactive)"],
  ["c1ccc2c(c1)CC1c3[nH]c4ccccc4c3CCN21 (centres undefined)", "SF-539", "> 10 µM (inactive)"],
  ["Cc1cc(O)nc(NNC(C#N)c2ccc(N(C)C)cc2)n1 (centres undefined)", "SF-539", "> 100 µM (inactive)"],
  ["C1CSCCSCCSCCSC1", "SF-539", "> 100 µM (inactive)"],
  ["CC(=O)CC(=O)ON(C)C(C)=O", "SF-539", "> 100 µM (inactive)"],
  ["CCCCNc1nc(C#N)c(N)s1", "SF-539", "> 100 µM (inactive)"],
  ["Nc1nc2ccc3ccccc3c2[nH]1", "SF-539", "> 10 µM (inactive)"],
  ["CC1=NN(C(=O)CSc2nc3ccc(I)cc3c(=O)n2Cc2ccccc2)C(=O)C1", "SF-539", "35.8 µM (inactive)"],
  ["OC(C1=C/C(=C\\c2ccncc2)c2ccccc21)c1ccncc1 (centres undefined)", "SF-539", "13.9 µM (inactive)"],
  ["N#C/C(=C\\c1cn(Cc2ccccc2)c2ccccc12)c1nn(-c2ccccc2)c(N)c1C#N", "SF-539", "3.11 µM (inactive)"],
  ["O=C(COC(=O)c1ccccc1)c1ccc(Br)cc1", "SF-539", "15.1 µM (inactive)"],
  ["OC(COc1cccc2ccccc12)CN1CCOCC1 (centres undefined)", "SF-539", "> 100 µM (inactive)"],
  ["C/C(=N\\NC(=S)NCCCCNC(=S)N/N=C(\\C)c1ccccn1)c1ccccc1", "SF-539", "1.11 µM (active)"],
  ["CC(Br)C(=O)NN1C2=C(Nc3ccccc31)c1cccc3cccc2c13 (centres undefined)", "SF-539", "> 100 µM (inactive)"],
  ["COC(=O)CC1(O)C(C=C(C)C)C(C(=O)OC)C(=O)C(C(=O)OC)C1C(=O)OC (centres undefined)", "SF-539", "> 100 µM (inactive)"],
  ["COC(=O)C1=C(C(=O)OC)C23C=CC=CC24C(C(=O)OC)=C(C(=O)OC)C4C1C3 (centres undefined)", "SF-539", "> 100 µM (inactive)"],
  ["CCCN1CN(C(C(=O)N[C@@H]2C(=O)N3C2SC(C)(C)C3C(=O)O)c2ccc(O)cc2)CSC1=S (some centres undefined)", "SF-539", "> 100 µM (inactive)"],
  ["CCOc1ccc(NC(=O)CC2SC(Nc3ccc(C)cc3)=NC2=O)cc1 (centres undefined)", "SF-539", "> 100 µM (inactive)"],
  ["COC(=O)c1ccccc1CC(Cc1ccccc1)C(=O)OC (centres undefined)", "SF-539", "> 100 µM (inactive)"],
  ["COC(=O)N/N=C(\\C)C(CN1CCOCC1)C(c1ccccc1)c1cc2ccccc2oc1=O (centres undefined)", "SF-539", "> 100 µM (inactive)"],
  ["O=C1CCCC/C1=C1\\C(=O)Nc2cc(F)ccc21", "SF-539", "> 100 µM (inactive)"]
]}
